The measured values listed here are drawn from patent US20240270821A1.

Molecular target: hGLP-1R (Homo sapiens, UniProt P43220)
Sequence (P43220 24-463): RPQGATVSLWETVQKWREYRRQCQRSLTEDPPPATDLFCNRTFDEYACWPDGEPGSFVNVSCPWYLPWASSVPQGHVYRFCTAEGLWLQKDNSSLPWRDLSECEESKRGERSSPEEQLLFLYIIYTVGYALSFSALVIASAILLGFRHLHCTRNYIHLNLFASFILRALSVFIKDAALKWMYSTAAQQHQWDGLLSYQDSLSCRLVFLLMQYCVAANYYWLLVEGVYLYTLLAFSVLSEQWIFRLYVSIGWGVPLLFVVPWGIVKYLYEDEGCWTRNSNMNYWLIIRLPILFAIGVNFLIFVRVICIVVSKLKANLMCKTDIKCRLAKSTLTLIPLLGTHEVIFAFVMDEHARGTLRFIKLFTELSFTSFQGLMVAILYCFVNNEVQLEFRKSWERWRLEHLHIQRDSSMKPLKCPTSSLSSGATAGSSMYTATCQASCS
Experiment: cell-based or functional assay
QUANTITY NAME: Relative cAMP EC50
Please make sure the unit comes right after the number.

Relative cAMP EC50 recorded for this binder, YXQGTXTSDXXIXLDXKAQXXFIEYLIEGGPSSGEPPPSGTGE (synthetic construct; SITE 2: note = 2-Aminoisobutyric Acid; SITE 6: note = alpha-methyl-2-fluoro-L-phenylalanine; SITE 10: note = 3-(4-Pyridyl)-L-alanine; SITE 11: note = alpha-methyl-L-serine; SITE 13: note = alpha-methyl-leucine; SITE 16: note = L-ornithine; SITE 17: note = Lysine is chemically mo) [Example 523] , is 0.482 nM

Relative cAMP EC50 recorded for this binder, YXQGTXTSDXSILLDKKAQXAFIEYLXEGGPSSGAPPPSGTGE (synthetic construct; SITE 2: note = 2-Aminoisobutyric Acid; SITE 6: note = alpha-methyl-2-fluoro-L-phenylalanine; SITE 10: note = 3-(4-Pyridyl)-L-alanine; SITE 17: note = Lysine is chemically modified through conjugation of the epsilon-amino group of the Lysine side chain with (gamma-Glu)2-CO-(CH2)1) [Example 661 (SEQ ID NO: 667)] , is 1.13 nM

Relative cAMP EC50 recorded for this binder, YXQGTFTSDFSXXLDKKAQXAFIEYLLEAGPSSGXPPPSGH (synthetic construct; SITE 2: note = 2-Aminoisobutyric Acid; SITE 12: note = L-ornithine; SITE 13: note = alpha-methyl-leucine; SITE 17: note = Lysine is chemically modified through conjugation of the epsilon-amino group of the Lysine side chain with (2-[2-(2-Amino-ethoxy)-ethoxy]-acetyl)2-(gamma-Glu)) [Example 257] , is 2.66 nM
